- Test system: NOMO1
- Protocol Description: cell viability relative to DMSO control; higher = less cytotoxic
- Measurement Setup: RPMI 5 mM glucose + 10% dialyzed FBS; 48 h; 0.000781 µM
Measured Attribute: cell viability

>>> meas_value("CC(C)C1NC(=O)C(NC(=O)C2=C3\\N=C\\4/C(=C(C)\\C(=O)\\C(=C4C(=O)NC5C(C)OC(=O)C(C(C)C)N(C)C(=O)CN(C)C(=O)C6CCCN6C(=O)C(NC5=O)C(C)C)N)OC3=C(C)C=C2)C(C)OC(=O)C(C(C)C)N(C)C(=O)CN(C)C(=O)C7CCCN7C1=O (configuration not stated)")
"5.95%"
>>> meas_value("Nc1ncnc2c1ncn2[C@@H]1O[C@@H](CO)[C@H](O)[C@@H]1O")
"122%"
>>> meas_value("O=C1[C@H](Cc2ccc(O)cc2)N2C(=O)CCN(C(=O)NCc3ccccc3)[C@H]2CN1Cc1cccc2ccccc12")
"76.7%"
>>> meas_value("O=C(O)C1(Cc2cccc(Nc3nccs3)n2)CCC(Oc2cccc(Cl)c2F)CC1 (configuration not stated)")
"107%"

Go through the list and state cell viability for each entry.
1. CN[C@H]1CCC2=CC(=C(OC)C(=C2C/3=C/C=C(OC)\C(=O)/C=C13)OC)OC
2. COc1ccc([S+](=O)([O-])N(C(C)=O)c2ccccc2/C=C/c2cc[n+]([O-])cc2)cc1
3. O=C1NC(=O)/C(=C/c2ccc3nccc(-c4ccncc4)c3c2)S1

["108%", "108%", "107%"]

====

- Tested on: SEM cells
- Protocol Description: AUC of viability dose-response curve (% viability x log10 dose units); higher = less sensitive
- Measurement Setup: RPMI 5 mM glucose + 10% FBS; 48 h
Assign AUC of viability dose-response curve to each entry below.

Go through the list and state AUC of viability dose-response curve for each entry.
1. CCN1CCN(c2ccc(Nc3cc(N(C)C(=O)Nc4c(Cl)c(OC)cc(OC)c4Cl)ncn3)cc2)CC1
2. CC(C)OC(=O)C(C(=O)OC(C)C)=C1S\C=C/S1
3. C[C@](O)(CS(=O)(=O)c1ccc(F)cc1)C(=O)Nc1ccc(C#N)c(C(F)(F)F)c1
4. CC1(C)O[C@@H]2C[C@H]3[C@@H]4C[C@H](F)C5=CC(=O)C=C[C@]5(C)[C@@]4(F)[C@@H](O)C[C@]3(C)[C@]2(C(=O)CO)O1
5. CCN(CC)CCOc1ccc(/C(=C(\Cl)c2ccccc2)c2ccccc2)cc1
6. Cc1cc(Nc2cc(NC(=O)c3c(Cl)cccc3Cl)ccn2)nc(N)n1
7. CC(C)(C)OC(=O)N[C@H]1CCCCC/C=C\[C@@H]2C[C@@]2(C(=O)N[S+](=O)([O-])C2CC2)NC(=O)[C@@H]2C[C@@H](OC(=O)N3Cc4cccc(F)c4C3)CN2C1=O

316
446
433
314
462
391
441

Go through the list and state AUC of viability dose-response curve for each entry.
1. Cc1onc(-c2ccccc2Cl)c1C(=O)N[C@@H]1C(=O)N2[C@@H]1SC(C)(C)[C@@H]2C(=O)[O-]
2. CN[C@H]1CCC2=CC(=C(OC)C(=C2C/3=C/C=C(OC)\C(=O)/C=C13)OC)OC
3. NC1=C(Cl)C(=CC=N1)OC2=C(F)C=C(NC(=O)\C3=C\N\C=C(C3=O)\C4=CC=C(F)C=C4)C=C2

[435, 144, 287]

Go through the list and state AUC of viability dose-response curve for each entry.
1. N[S+]([O-])(=O)C1=C(Cl)C=C2\N=C/N[S+]([O-])(=O)C2=C1
2. C[C@]\12CC[C@H](O)CC1=C/C[C@@H]3[C@@H]2CC[C@@]\4(C)[C@H]3C\C=C4C5=CN=CC=C5
3. O=C(Nc1cc(Cl)cc2c1[nH]c1cnccc12)c1cccnc1
4. CCNC(=O)C[C@H]1/N=C(/C2=CC=C(Cl)C=C2)C3=CC(=CC=C3[N]4C(=NN=C14)C)OC
5. C[C@H]1COC2=C3N1\C=C(C(O)=O)/C(=O)C3=CC(=C2N4CCN(C)CC4)F

[426, 456, 452, 450, 373]

Go through the list and state AUC of viability dose-response curve for each entry.
1. O=C1NC(=O)/C(=C\c2ccc(-c3ccc(F)cc3)o2)S1
2. Cc1c(C)n(Cc2ccc(-c3ccccc3C(=O)O)cc2)c2ccc(C(=O)N[C@@H](C)c3ccc([N+](=O)[O-])cc3)cc12
3. CCn1cc(-c2ccnc3[nH]c(-c4cccc(CN(C)C)c4)cc23)c(-c2ccc(NC(=O)N(C)C)cc2)n1

462
466
224

Item: "CCN1\C=C(\C(O)=O)C(=O)C2=C1C=C(N3CCNCC3)C(=C2)F" | AUC of viability dose-response curve: 392

The measurements presented in this section are drawn from the supplement of paper PMC11451515.
